- Test system: HCC-2998
- Experiment Description: cells
- Test Conditions: Homo sapiens, HCC 2998, 48 h
// classify: if (GI50 < 2 µM) met else not met

CN(C)c1nc(NCCNS(=O)(=O)c2ccc(C3=Nc4c(N)nc(N)nc4NC(c4ccc(F)cc4)C3)cc2)nc(Nc2ccc(F)cc2)n1 (stereo not shown) [31f] : not met
Nc1nc(N)c2c(n1)NC(c1ccccc1)CC(c1ccc(Nc3nc(NCCO)nc(Nc4ccc(Cl)cc4)n3)cc1)=N2 (stereo not shown) [33a] : met
Cc1ccc(/C=C/C(=O)c2ccc(S(=O)(=O)NCCNc3nc(Nc4ccc(F)cc4)nc(N(C)C)n3)cc2)cc1 [24b] : not met
CN(C)c1nc(NCCNS(=O)(=O)c2ccc(C(=O)/C=C/c3ccccc3)cc2)nc(Nc2ccc(F)cc2)n1 [24a] : not met
CN(C)c1nc(NCCNS(=O)(=O)c2ccc(C3=Nc4c(N)nc(N)nc4NC(c4ccc(Cl)cc4)C3)cc2)nc(Nc2ccc(F)cc2)n1 (stereo not shown) [31e] : not met

In plain terms, does CN(C)c1nc(NCCNS(=O)(=O)c2ccc(C(=O)/C=C/c3ccc(F)cc3)cc2)nc(N2CCOCC2)n1 [23f] come in under 2 µM for GI50? not met

In the record for COc1cc(/C=C/C(=O)c2ccc(S(=O)(=O)NCCNc3nc(N(C)C)nc(N4CCOCC4)n3)cc2)cc(OC)c1OC [23d] , is GI50 less than 2 µM? met

* * *

- System: OVCAR-8
- Experiment Description: cells
- Test Conditions: Homo sapiens, OVCAR-8, 48 h, read-out: LC50
# CC50 listing for each entry below

COc1cc(/C=C/C(=O)c2ccccc2)ccc1Oc1nc(Nc2ccc(F)cc2)nc(N(C)C)n1 [21a] : 97.6 µM
CN(C)c1nc(NCCNS(=O)(=O)c2ccc(C(=O)/C=C/c3ccc(F)cc3)cc2)nc(N2CCOCC2)n1 [23f] : 54 µM
CN(C)c1nc(NCCNS(=O)(=O)c2ccc(C3=Nc4c(N)nc(N)nc4NC(c4ccc(F)cc4)C3)cc2)nc(Nc2ccc(F)cc2)n1 (centres unmarked) [31f] : > 100 µM

Please look up its CC50: Cc1ccc(C2CC(c3ccc(S(=O)(=O)NCCNc4nc(Nc5ccc(F)cc5)nc(N(C)C)n4)cc3)=Nc3c(N)nc(N)nc3N2)cc1 (centres unmarked) [31b] > 100 µM

* * *

- System: MALME-3M
- Experiment Description: cells
- Test Conditions: Homo sapiens, 48 h, read-out: LC50
Property Name: log10(CC50) (log10 of the value in µM)
Please note: log10 values; quantity CC50; unit µM.

I have this compound here, CN(C)c1nc(NCCNS(=O)(=O)c2ccc(C(=O)/C=C/c3ccc(C(F)(F)F)cc3)cc2)nc(Nc2ccc(F)cc2)n1 [24g] , and I need its recorded log10(CC50). 1.44

So what does the record say about log10(CC50) for COc1cc(/C=C/C(=O)c2ccc(S(=O)(=O)NCCNc3nc(N(C)C)nc(N4CCOCC4)n3)cc2)cc(OC)c1OC [23d] ? 0.97

* * *

- Tested on: HCT-116
- Experiment Description: cells
- Test Conditions: Homo sapiens, HCT-116, 48 h
Lab note: cut-off is 2000 nM. Strictly less in GI50 is MET. Exactly 2000 nM or more is NOT MET.

Take a look at these entries with their results.
COc1cc(/C=C/C(=O)c2ccc(C)cc2)ccc1Oc1nc(Nc2ccc(F)cc2)nc(N(C)C)n1 [21b] : NOT MET
CN(C)c1nc(NCCNS(=O)(=O)c2ccc(C3=Nc4c(N)nc(N)nc4NC(c4ccc(F)cc4)C3)cc2)nc(Nc2ccc(F)cc2)n1 (stereo not shown) [31f] : NOT MET
CN(C)c1nc(NCCNS(=O)(=O)c2ccc(C(=O)/C=C/c3ccc(F)cc3)cc2)nc(Nc2ccc(F)cc2)n1 [24f] : MET
Nc1nc(N)c2c(n1)NC(c1ccc(C(F)(F)F)cc1)CC(c1ccc(Nc3nc(NCCO)nc(Nc4ccc(Cl)cc4)n3)cc1)=N2 (stereo not shown) [33g] : MET
COc1cc(/C=C/C(=O)c2ccc(C)cc2)ccc1Oc1nc(NCCO)nc(N2CCOCC2)n1 [20b] : MET
COc1ccc(/C=C/C(=O)c2ccc(S(=O)(=O)NCCNc3nc(Nc4ccc(F)cc4)nc(N(C)C)n3)cc2)cc1 [24c] : MET

Determine if Nc1nc(N)c2c(n1)NC(c1ccccc1)CC(c1ccc(Nc3nc(NCCO)nc(Nc4ccc(Cl)cc4)n3)cc1)=N2 (stereo not shown) [33a] shows GI50 strictly lower than 2000 nM. MET

Report whether reported GI50 is lower than 2000 nM (strictly) for Nc1nc(N)c2c(n1)NC(c1ccc(F)cc1)CC(c1ccc(Nc3nc(NCCO)nc(Nc4ccc(Cl)cc4)n3)cc1)=N2 (stereo not shown) [33f] MET

Strictly below 2000 nM: is that where GI50 of CN(C)c1nc(NCCNS(=O)(=O)c2ccc(C3=Nc4c(N)nc(N)nc4NC(c4ccc(C(F)(F)F)cc4)C3)cc2)nc(Nc2ccc(F)cc2)n1 (stereo not shown) [31g] sits? NOT MET

Input COc1cc(/C=C/C(=O)c2cc(OC)c(OC)c(OC)c2)ccc1Oc1nc(NCCO)nc(N2CCOCC2)n1 [20d] ; condition: GI50 strictly below 2000 nM. Does it hold? MET

Does this compound meet the criterion GI50 < 2000 nM? Cc1ccc(/C=C/C(=O)c2ccc(S(=O)(=O)NCCNc3nc(Nc4ccc(F)cc4)nc(N(C)C)n3)cc2)cc1 [24b] MET

State whether 2000 nM exceeds GI50 recorded for CN(C)c1nc(NCCNS(=O)(=O)c2ccc(C3=Nc4c(N)nc(N)nc4NC(c4ccccc4)C3)cc2)nc(Nc2ccc(F)cc2)n1 (stereo not shown) [31a] . NOT MET

Item COc1cc(/C=C/C(=O)c2ccccc2)ccc1Oc1nc(Nc2ccc(F)cc2)nc(N(C)C)n1 [21a] : GI50 beneath 2000 nM, strictly? NOT MET

Does this compound meet the criterion GI50 < 2000 nM? CN(C)c1nc(NCCNS(=O)(=O)c2ccc(C(=O)/C=C/c3ccccc3)cc2)nc(Nc2ccc(F)cc2)n1 [24a] MET

Decide: GI50 of CN(C)c1nc(NCCNS(=O)(=O)c2ccc(C3=Nc4c(N)nc(N)nc4NC(c4ccc(C(F)(F)F)cc4)C3)cc2)nc(N2CCOCC2)n1 (stereo not shown) [30g] strictly below 2000 nM? NOT MET

Dear colleague, could you confirm whether GI50 of CN(C)c1nc(NCCNS(=O)(=O)c2ccc(C(=O)/C=C/c3ccc(C(F)(F)F)cc3)cc2)nc(N2CCOCC2)n1 [23g] falls below 2000 nM? Thanks. NOT MET

* * *

- Test system: RPMI-8226
- Experiment Description: cells
- Test Conditions: Homo sapiens, RPMI-8226, 48 h
Entries and their GI50
Please state the figure in µM; there is no need to write the unit.

Check out these entries, answers already filled in.
COc1cc(/C=C/C(=O)c2ccc(C)cc2)ccc1Oc1nc(NCCO)nc(N2CCOCC2)n1 [20b] : 1.72
COc1cc(/C=C/C(=O)c2cc(OC)c(OC)c(OC)c2)ccc1Oc1nc(Nc2ccc(F)cc2)nc(N(C)C)n1 [21d] : 0.751
CN(C)c1nc(NCCNS(=O)(=O)c2ccc(C3=Nc4c(N)nc(N)nc4NC(c4ccc(C(F)(F)F)cc4)C3)cc2)nc(N2CCOCC2)n1 (stereo not shown) [30g] : 11.2

Missing value: GI50, RPMI-8226, entry CN(C)c1nc(NCCNS(=O)(=O)c2ccc(C(=O)/C=C/c3ccc(Cl)cc3)cc2)nc(Nc2ccc(F)cc2)n1 [24e] . Fill in? 2.47

* * *

- Test system: OVCAR-3
- Experiment Description: cells
- Test Conditions: Homo sapiens, OVCAR-3, 48 h
Please assign not satisfied whenever GI50 is at or above 9 µM, and satisfied whenever it is below.

Nc1nc(N)c2c(n1)NC(c1ccc(C(F)(F)F)cc1)CC(c1ccc(Nc3nc(NCCO)nc(Nc4ccc(Cl)cc4)n3)cc1)=N2 (centres unmarked) [33g] : satisfied

Criterion: GI50 strictly below 9 µM. Is it met by COc1cc(/C=C/C(=O)c2ccc(S(=O)(=O)NCCNc3nc(Nc4ccc(F)cc4)nc(N(C)C)n3)cc2)cc(OC)c1OC [24d] ? satisfied

Decide: GI50 of COc1cc(/C=C/C(=O)c2ccc(C)cc2)ccc1Oc1nc(NCCO)nc(N2CCOCC2)n1 [20b] strictly below 9 µM? satisfied

Lab log: compare recorded GI50 with 9 µM; is it strictly lower for CN(C)c1nc(NCCNS(=O)(=O)c2ccc(C(=O)/C=C/c3ccccc3)cc2)nc(Nc2ccc(F)cc2)n1 [24a] ? satisfied

For this compound, is GI50 lower than 9 µM? COc1cc(/C=C/C(=O)c2ccccc2)ccc1Oc1nc(Nc2ccc(F)cc2)nc(N(C)C)n1 [21a] not satisfied

Just wondering, is GI50 of CN(C)c1nc(NCCNS(=O)(=O)c2ccc(C(=O)/C=C/c3ccc(C(F)(F)F)cc3)cc2)nc(N2CCOCC2)n1 [23g] below 9 µM? not satisfied

Hi there! Is GI50 for CN(C)c1nc(NCCNS(=O)(=O)c2ccc(C(=O)/C=C/c3ccc(F)cc3)cc2)nc(N2CCOCC2)n1 [23f] below 9 µM, do you know? not satisfied

In the record for CN(C)c1nc(NCCNS(=O)(=O)c2ccc(C3=Nc4c(N)nc(N)nc4NC(c4ccccc4)C3)cc2)nc(Nc2ccc(F)cc2)n1 (centres unmarked) [31a] , is GI50 less than 9 µM? not satisfied
